These measurements were taken from patent US11286268B1.

- TARGET OR TEST SYSTEM: recombinant eIF4E (Homo sapiens (Human), UniProt P06730)
- Sequence (P06730 whole entry): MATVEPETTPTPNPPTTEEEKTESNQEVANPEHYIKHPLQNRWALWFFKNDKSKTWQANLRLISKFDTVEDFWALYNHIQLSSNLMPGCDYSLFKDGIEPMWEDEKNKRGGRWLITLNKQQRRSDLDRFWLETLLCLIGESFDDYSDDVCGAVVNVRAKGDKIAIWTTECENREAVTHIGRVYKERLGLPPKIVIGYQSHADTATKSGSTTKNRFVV
- ASSAY OVERVIEW: Fluorescence polarization competition assay for eIF4E binding potency
- EXPERIMENTAL CONDITIONS: inhibition of eIF4E/EDA-m7GDP-ATTO-550 binding by 50%; Table 4B calculated values; read-out: IC50
MEASURE: IC50 (nM)

Worked examples, 4 compounds total:
MOL: Cc1cc(-c2cc(Cl)ccc2OCCn2c(C)nc3cnc(N(C)N(C)C)c(C#N)c3c2=O)c2scc(C(=O)O)c2n1
TARGET OR TEST SYSTEM: recombinant eIF4E (Homo sapiens (Human), UniProt P06730)
IC50 [nM]: 20.7
--
MOL: CON(C)c1ncc2nc(C)n(CCOc3ccc(Cl)cc3-c3cc(C)nc4c(C(=O)O)csc34)c(=O)c2c1C#N
TARGET OR TEST SYSTEM: recombinant eIF4E (Homo sapiens (Human), UniProt P06730)
IC50 [nM]: 19
--
MOL: CC#Cc1c(C(=O)O)cccc1-c1cc(Cl)ccc1OCCn1cnc2cnc(C#N)cc2c1=O
TARGET OR TEST SYSTEM: recombinant eIF4E (Homo sapiens (Human), UniProt P06730)
IC50 [nM]: 184
--
MOL: Cc1cc(-c2cc(Cl)ccc2OCCn2c(C)nc3c(F)cc(Cl)c(C#N)c3c2=O)c2scc(C(=O)O)c2n1
TARGET OR TEST SYSTEM: recombinant eIF4E (Homo sapiens (Human), UniProt P06730)
IC50 [nM]: 49.3

1. Cc1cc(-c2cc(Cl)ccc2OCCn2c(C)nc3cc(C(F)(F)F)c(C4CCNCC4)cc3c2=O)c2sc(C)c(C(=O)O)c2n1
2. Cc1nc2ccc(CCN(C)C)c(C#N)c2c(=O)n1CCOc1ccc(Cl)cc1-c1ccc(C(F)F)c2c(C(=O)O)csc12
3. Cc1cc(-c2cc(Cl)ccc2OCCn2c(C)nc3cc(C(F)(F)F)c(Br)c(C#N)c3c2=O)c2scc(C(=O)O)c2n1
Let's sort these by IC50, smallest first. Go ahead? Answer format: the labels, in the requested order.
2, 3, 1
